- measured.target: human cloned 5-HT6 receptors (Homo sapiens, UniProt P50406)
- Construct: expressed in transfected cells
- Sequence (P50406 whole entry): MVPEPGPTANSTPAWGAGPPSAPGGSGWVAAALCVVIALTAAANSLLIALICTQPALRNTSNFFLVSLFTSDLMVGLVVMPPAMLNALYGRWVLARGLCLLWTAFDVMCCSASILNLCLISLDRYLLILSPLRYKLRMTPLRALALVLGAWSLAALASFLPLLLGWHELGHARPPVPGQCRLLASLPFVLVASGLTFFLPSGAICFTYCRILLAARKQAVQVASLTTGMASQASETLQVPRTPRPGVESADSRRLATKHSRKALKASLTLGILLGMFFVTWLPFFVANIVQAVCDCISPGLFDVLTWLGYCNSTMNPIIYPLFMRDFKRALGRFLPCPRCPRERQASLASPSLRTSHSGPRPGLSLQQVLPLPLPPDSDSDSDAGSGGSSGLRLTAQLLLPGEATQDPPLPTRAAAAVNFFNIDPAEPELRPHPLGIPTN
- assay.details: 5-HT6 receptor affinity following the procedures outlined in WO98/27081
- Assay type: binding
- measurement.parameters: read-out: pKi values at human cloned 5-HT6 receptors (converted)
Where a name gives a salt, the structure may show the parent alone.
Attribute: Ki

[
  {
    "compound": "O=S(=O)(c1ccccc1)c1ccnc2c(N3CCNCC3)cccc12 [Example E11, hydrochloride]",
    "Ki": "< 10 nM"
  },
  {
    "compound": "Cc1cc(N2CCNCC2)c2ccc(S(=O)(=O)c3ccccc3)cc2n1 [Example E9, hydrochloride]",
    "Ki": "< 10 nM"
  }
]

Ask | Would you mind telling me what Ki value was observed for O=S(=O)(c1ccccc1F)c1c[nH]c2c(N3CCNCC3)nccc12 [Example E7, hydrochloride] ?
Reply | < 31.6 nM

----------
- measured.target: human cloned 5-HT6 receptors (Homo sapiens)
- Construct: expressed in transfected cells
- assay.details: 5-HT6 receptor affinity following the procedures outlined in WO98/27081
- Format: binding
- measurement.parameters: read-out: pKi values at human cloned 5-HT6 receptors (converted)
Where a name gives a salt, the structure may show the parent alone.
quantity.name: Ki

Previously resolved entries follow.
[
  {
    "molecule": "Cc1cc(S(=O)(=O)c2ccccc2)c2cccc(N3CCNCC3)c2n1 [Example E12]",
    "result": "< 10 nM"
  },
  {
    "molecule": "O=S(=O)(c1cccc(F)c1)c1c[nH]c2c(N3CCNCC3)nccc12 [Example E8, hydrochloride]",
    "result": "< 31.6 nM"
  },
  {
    "molecule": "Cc1cc(S(=O)(=O)c2cccc(F)c2)c2cccc(N3CCNCC3)c2n1 [Example E15]",
    "result": "< 10 nM"
  }
]

Ask | Form field: reported Ki of Cc1cc(S(=O)(=O)c2ccccc2F)c2cccc(N3CCNCC3)c2n1 [Example E14]
Reply | < 10 nM

----------
- measured.target: human cloned 5-HT6 receptors (Homo sapiens, UniProt P50406)
- Construct: expressed in transfected cells
- assay.details: 5-HT6 receptor affinity following the procedures outlined in WO98/27081
- Type: binding
- measurement.parameters: read-out: pKi values at human cloned 5-HT6 receptors (converted)
Counter-ions that a name gives are not always drawn.
In this section, each of the compounds is paired with its reported Ki.

See these solved cases before continuing.
[
  {
    "compound": "Cc1cc(S(=O)(=O)c2cccc(Cl)c2)c2cccc(N3CCNCC3)c2n1",
    "measured.target": "human cloned 5-HT6 receptors (Homo sapiens, UniProt P50406)",
    "result": "< 0.01 µM"
  },
  {
    "compound": "O=S(=O)(c1ccccc1)c1ccnc2c(N3CCNCC3)cccc12 [Example E10]",
    "measured.target": "human cloned 5-HT6 receptors (Homo sapiens, UniProt P50406)",
    "result": "< 0.01 µM"
  },
  {
    "compound": "Cc1cc(S(=O)(=O)c2ccccc2)c2cccc(N3CCNCC3)c2n1 [Example E13, hydrochloride]",
    "measured.target": "human cloned 5-HT6 receptors (Homo sapiens, UniProt P50406)",
    "result": "< 0.01 µM"
  }
]

Let's switch to this compound now.
Ask | What value of Ki has been reported for the following compound? O=S(=O)(c1ccccc1)c1c[nH]c2c(N3CCNCC3)nccc12 [Example E6, hydrochloride]
Reply | < 0.0316 µM
